Data credit: the COVID Moonshot data (paper PMC11187573)

Target: SARS-CoV-2 Main Protease (SARS-CoV-2)
Conditions: 20.0 µM
Reported inhibition by item:
// units = %; emit number, no label

Field inhibition (SARS-CoV-2 Main Protease (SARS-CoV-2)), entry `Cc1ccncc1NC(=O)C12CC(CO1)C2` : -0.804

Summary: `C#Cc1ncccc1NC(=O)Cc1cccc(Cl)c1` , SARS-CoV-2 Main Protease (SARS-CoV-2), inhibition = -2.01

Readout inhibition for `O=C(CCl)Nc1cccc(N2CCCC2=O)c1` , test system SARS-CoV-2 Main Protease (SARS-CoV-2), was 27.1

====

molecules and their reported inhibition
Target: SARS-CoV-2 Main Protease (SARS-CoV-2)
Conditions: 50.0 µM
Put your answer as a value accompanied by its unit after it.

> print(dat)
                                   molecule                  target.or.test.system  assay.metric  observed.measurement
1  N#Cc1ccc(S(=O)(=O)N2CCN(C(=O)c3cc(=O)[nH]c4ccc(F)cc34)CC2)cc1  SARS-CoV-2 Main Protease (SARS-CoV-2)    inhibition                 33.7%
2  C=CC(=O)N(c1ccc(C(C)(C)C)cc1)C(C(=O)NC(C)(C)C)c1cncc(OCC)c1 (stereo not given)  SARS-CoV-2 Main Protease (SARS-CoV-2)    inhibition                   15%
3  COc1ccccc1OCCN1C(=O)C(=O)c2cc(Br)cc(C)c21  SARS-CoV-2 Main Protease (SARS-CoV-2)    inhibition                 48.1%
4         Cc1ccncc1NC(=O)Cn1ccc2ccc(Cl)cc21  SARS-CoV-2 Main Protease (SARS-CoV-2)    inhibition                 77.4%

Moving on to the next molecule.
Lab note: molecule O=C(Nc1cncc2ccccc12)C1COc2ccc(Cl)cc21 (stereo not given) tested on SARS-CoV-2 Main Protease (SARS-CoV-2); recorded inhibition was 77%

====

Conditions: 100.0 µM
assay.metric: relative solubility at 100 uM

> print(dat)
                                  compound                   assay.metric  observed.measurement
1       CS(=O)(=O)Cc1ccc(C(=O)Nc2cccnc2)o1  relative solubility at 100 uM                     1
2  COc1ccncc1NC(=O)C(C)(C)c1cc(F)cc(C#N)c1  relative solubility at 100 uM                     1

Briefly, relative solubility at 100 uM measured for `C#Cc1ccc(CNC(=O)N2CCOCC2)cc1` : 1

In plain terms, O=C(Nc1nncn1C1CC1)[C@H]1CCOc2ccc(Cl)cc21 (stereo in doubt) has a documented relative solubility at 100 uM of 1

Documented relative solubility at 100 uM of CCCSCC(=O)C(C#N)C(=O)Nc1ccc(F)cc1F (stereo unspecified) : 1.01

compound O=C(CCl)N1CCCC(N(CC2CCCCC2)C2CCC(O)CC2)C1 (stereo unspecified) , relative solubility at 100 uM observed: 1

====

Each item that follows carries a reported inhibition.
Target: SARS-CoV-2 Main Protease (SARS-CoV-2)
Details: 50.0 µM
Give a bare numeral; the unit % is implied.

> print(dat)
                                   compound  endpoint.unit  observed.measurement
1  O=C(NCCc1ccc2c(c1)CCO2)NCc1cccc(N2C(=O)NC3(CCCC3)C2=O)c1              %                   -12
2  CS(=O)(=O)c1oc(-c2ccc(F)cc2)nc1S(=O)(=O)c1ccc(Cl)cc1              %                    11
3  Cc1ccncc1NC(=O)[C@@H]1C[C@H]1CF (stereo in doubt)              %                  3.57
4  C=CC(=O)N(c1ccc(C(C)OC)cc1)C(C(=O)Nc1ccc(OC)cc1C)c1cccnc1 (stereo not given)              %                   6.9
5  CC(C)(Cn1c(C2CCC(=O)N2)nnc1N1CCCC(C(N)=O)C1)c1ccccc1F (stereo not given)              %                  6.51
6  O=C(c1cc(=O)[nH]c2ccc(F)cc12)N1CCN(S(=O)(=O)c2ccc(Cl)cc2)CC1              %                  11.4
7              O=S(=O)(CCc1ccccc1)Nc1cccnc1              %                 -32.5
8  Cc1ccc(Oc2cccc(NC(=O)NCc3cnnn3C)c2)c(C)c1              %                 -12.8
9  COc1ccccc1OC1CCCN(C(=O)c2cc(=O)[nH]c3ccc(Cl)cc23)C1 (stereo not given)              %                  5.27

Next:
GET /value?item= `COC1(CC(=O)Nc2cnccc2C)CC1` &field=inhibition returns 13.8
